Target: hTRPA1 (Homo sapiens (Human), UniProt O75762)
Sequence (O75762 whole entry): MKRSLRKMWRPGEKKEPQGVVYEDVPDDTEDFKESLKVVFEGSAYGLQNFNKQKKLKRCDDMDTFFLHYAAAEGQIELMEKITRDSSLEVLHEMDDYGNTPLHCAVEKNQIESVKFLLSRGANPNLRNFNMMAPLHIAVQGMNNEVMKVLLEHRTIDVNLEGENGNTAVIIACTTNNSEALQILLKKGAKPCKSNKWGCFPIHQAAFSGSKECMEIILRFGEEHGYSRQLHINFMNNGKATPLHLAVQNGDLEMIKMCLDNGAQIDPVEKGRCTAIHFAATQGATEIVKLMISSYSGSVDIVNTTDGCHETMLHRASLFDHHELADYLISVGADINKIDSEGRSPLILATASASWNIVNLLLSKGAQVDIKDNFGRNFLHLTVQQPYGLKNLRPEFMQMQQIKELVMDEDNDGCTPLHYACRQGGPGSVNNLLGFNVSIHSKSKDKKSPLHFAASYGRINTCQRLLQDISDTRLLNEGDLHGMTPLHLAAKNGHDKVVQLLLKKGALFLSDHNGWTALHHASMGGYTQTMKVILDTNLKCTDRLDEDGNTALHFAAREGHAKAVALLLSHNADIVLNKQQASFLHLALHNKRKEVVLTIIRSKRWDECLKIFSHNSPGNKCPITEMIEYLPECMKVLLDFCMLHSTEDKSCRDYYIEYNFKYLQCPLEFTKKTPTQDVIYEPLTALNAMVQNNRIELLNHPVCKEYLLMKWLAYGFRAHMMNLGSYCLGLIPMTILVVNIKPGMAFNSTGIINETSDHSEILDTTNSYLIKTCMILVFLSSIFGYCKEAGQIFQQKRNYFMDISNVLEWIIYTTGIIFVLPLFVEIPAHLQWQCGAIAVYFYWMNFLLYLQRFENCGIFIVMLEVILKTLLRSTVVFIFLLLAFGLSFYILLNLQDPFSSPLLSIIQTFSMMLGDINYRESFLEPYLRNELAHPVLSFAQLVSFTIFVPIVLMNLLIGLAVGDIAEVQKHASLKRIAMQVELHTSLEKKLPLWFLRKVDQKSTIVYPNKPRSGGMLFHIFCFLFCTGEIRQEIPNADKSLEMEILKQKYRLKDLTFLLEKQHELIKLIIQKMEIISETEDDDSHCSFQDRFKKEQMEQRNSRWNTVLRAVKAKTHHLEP
Assay: Dose response calcium flux assay (FLIPR), ChanTest hTRPA1-CHO stably transfected cell line
Assay type: cell-based
Settings: CHO-K1 Tet-On human TRPA1 cells, cinnamaldehyde agonist (final 100 uM)
Description: IC50 Determinations of Exemplified Compounds Dose Response Assay: Chan Test hTRPA1-CHO Stably Transfected Cell Line CHO-K1 Tet-On_HOMSA_TRPA1_Clone_20 Chinese Hamster Ovary cells, inducible expression […] After incubation, both the cell and compound plates were brought to the FLIPR and 20 ul of the diluted compounds/antagonist/bk were transferred to the cell plates by the FLIPR. […] Responses (increase in peak fluorescence) in each well following agonist addition was determined. […]
MEASURED_ATTRIBUTE: IC50 (nM)

Sample records with IC50:
{"COMPOUND": "C[C@H](C(=O)NCc1cccc(-c2ccc(C(F)(F)F)cc2)c1)N(C)S(=O)(=O)c1ccc(F)cc1", "SYSTEM_NAME": "hTRPA1 (Homo sapiens (Human), UniProt O75762)", "MEASURED_ATTRIBUTE": "IC50", "MEASUREMENT": 1120}
{"COMPOUND": "CC(C)N(CC(=O)NCc1cc(-c2ccc(C(F)(F)F)cc2)ncn1)S(=O)(=O)c1ccc(F)c(F)c1", "SYSTEM_NAME": "hTRPA1 (Homo sapiens (Human), UniProt O75762)", "MEASURED_ATTRIBUTE": "IC50", "MEASUREMENT": 19}
{"COMPOUND": "CC(C)N(CC(=O)NCc1cccc(-c2cnc(C(F)(F)F)cn2)c1)S(=O)(=O)c1ccc(F)cc1", "SYSTEM_NAME": "hTRPA1 (Homo sapiens (Human), UniProt O75762)", "MEASURED_ATTRIBUTE": "IC50", "MEASUREMENT": 79}
{"COMPOUND": "CC(C)N(CC(=O)NCc1cc(F)cc(-c2ccc(C(F)(F)F)cc2)c1)S(=O)(=O)c1ccc(F)cc1", "SYSTEM_NAME": "hTRPA1 (Homo sapiens (Human), UniProt O75762)", "MEASURED_ATTRIBUTE": "IC50", "MEASUREMENT": 12}
{"COMPOUND": "CN(C(CO)C(=O)NCc1cccc(-c2ccc(C(F)(F)F)cc2)c1)S(=O)(=O)c1ccc(F)cc1 (stereo not shown)", "SYSTEM_NAME": "hTRPA1 (Homo sapiens (Human), UniProt O75762)", "MEASURED_ATTRIBUTE": "IC50", "MEASUREMENT": 130}

I. CC(C)N(CC(=O)NCc1cccc(-c2ccc(C(F)(F)F)cc2)c1)S(=O)(=O)c1ccc(F)cc1
II. CC(C)N(CC(=O)NCc1cc(-c2ccc(C(F)(F)F)cc2)ncn1)S(=O)(=O)c1cnccn1
Problem: Lowest IC50? choose I or II Please indicate the selected item by its label.
Solution: I
(I: 51 nM, II: 380 nM)

* * *

target: hTRPA1 (Homo sapiens (Human)); assay: IC50 determination on human TRPA1 channel, Hamamatsu FDSS calcium fluorescence, CHO cells; type: cell-based; conditions: CHO cells expressing human TRPA1; block of cinnamaldehyde induced calcium influx; Hill coefficient fixed to 1.5; read-out: hTRPA1 AUC IC50
pIC50: −log10 of the molar value.
MEASURED_ATTRIBUTE: pIC50

Sample records with pIC50:
{"MOLECULE": "O=C(CN(c1ccc(F)cc1)S(=O)(=O)c1ccc(F)cc1)NCc1cc(-c2ccc(C(F)(F)F)nc2)ncn1", "pIC50": 8.05}
{"MOLECULE": "CC(C)N(C1(C(=O)NCc2cc(-c3ccc(C(F)(F)F)nc3)ncn2)CC1)S(=O)(=O)c1ccc(F)cc1", "pIC50": 7.54}
{"MOLECULE": "CC(C)N(CC(=O)NCc1cccc(N2CCCC2)c1)S(=O)(=O)c1ccc(F)cc1", "pIC50": 6.05}

1. [2H]C([2H])(C(=O)NCc1cc(-c2ccc(C(F)(F)F)nc2)ncn1)N(C(C)C)S(=O)(=O)c1ccc(F)cc1
2. CC(C)N(CC(=O)NCc1cccc(-c2ccc(C(F)(F)F)cc2)c1)S(=O)(=O)c1ccn(C)n1
Problem: Lowest pIC50? choose 1 or 2 Please indicate the selected item by its label.
Solution: 2
(2: 5.62, 1: 7.24)
